- tested.system: Acyl-CoA : cholesterol acyltransferase (ACAT) (Rattus norvegicus, UniProt Q7TQM4)
- Construct: from the mucosal microsome fraction of the small intestine of male, 6-week old Sprague-Dawley rats; from tissue; host or cells: mucosal microsome fraction of the small intestine of male 6-week old Sprague-Dawley rats, fasted for 20 hours
- procedure.details: Acyl-CoA : cholesterol acyltransferase (ACAT) inhibitory activity: production of labeled cholesterol ester from [1-^14 C] oleoyl-CoA and endogenous cholesterol
- Assay type: biochemical
- cond: 10^-6 M test compound; read-out: ACAT Inhibition Rate
measured.endpoint: inhibition at 1 µM (%)

Cc1cc(C)c2ncc(NC(=O)Nc3cc(C(C)C)c(O)c(C(C)C)c3)c(-c3ccccc3Cl)c2c1 = 79.9

[P] Cc1cc(C)c2ncc(NC(=O)Nc3ccc([N+](=O)[O-])cc3)c(-c3ccccc3Cl)c2c1
[Q] O=C(Nc1ccc(Cl)cc1)Nc1cnc2ccc(Cl)cc2c1-c1ccccc1 [Compound B, reference compound]
Hello, I am sorting some records. Could you say if P or Q has the smaller inhibition at 1 µM value? I would appreciate it if you answered with the label of your choice. Q

====

- tested.system: Acyl-CoA : cholesterol acyltransferase (ACAT) (Rattus norvegicus, UniProt Q7TQM4)
- Construct: from the mucosal microsome fraction of the small intestine of male, 6-week old Sprague-Dawley rats; from tissue; host or cells: mucosal microsome fraction of the small intestine of male 6-week old Sprague-Dawley rats, fasted for 20 hours
- Sequence (Q7TQM4 1-524): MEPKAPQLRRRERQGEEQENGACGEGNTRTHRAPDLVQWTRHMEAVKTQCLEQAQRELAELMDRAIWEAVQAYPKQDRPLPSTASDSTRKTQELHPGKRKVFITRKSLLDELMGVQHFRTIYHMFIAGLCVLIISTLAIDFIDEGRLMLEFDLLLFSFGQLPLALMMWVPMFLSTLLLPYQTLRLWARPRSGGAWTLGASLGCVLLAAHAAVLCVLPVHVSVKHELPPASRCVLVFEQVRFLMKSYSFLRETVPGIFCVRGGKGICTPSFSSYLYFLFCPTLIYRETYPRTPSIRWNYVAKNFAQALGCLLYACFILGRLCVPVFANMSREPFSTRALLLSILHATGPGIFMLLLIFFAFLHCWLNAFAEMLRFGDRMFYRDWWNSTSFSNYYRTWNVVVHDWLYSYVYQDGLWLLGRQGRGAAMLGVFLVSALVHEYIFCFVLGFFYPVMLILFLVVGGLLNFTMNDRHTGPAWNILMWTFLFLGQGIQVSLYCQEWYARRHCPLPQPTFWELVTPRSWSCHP
- procedure.details: Acyl-CoA : cholesterol acyltransferase (ACAT) inhibitory activity: production of labeled cholesterol ester from [1-^14 C] oleoyl-CoA and endogenous cholesterol
- Type: biochemical
- cond: 10^-6 M test compound; read-out: ACAT Inhibition Rate
- Method: 1. Acyl-CoA : cholesterol acyltransferase (ACAT) inhibitory activity. […] ACAT activity was calculated by the method of Helgerud et al. described in Journal of Lipid Research, Vol. 22, page 271 (1981), namely, by measuring the amount of the labeled cholesterol ester produced from [1-^14 C] oleoyl-CoA and endogenous cholesterol. […]
measured.endpoint: inhibition at 1 µM (%)

O=C(Nc1ccc(F)cc1F)Nc1cnc2ccc(Cl)cc2c1-c1ccccc1F = 96.8
Cc1cc(Cl)cc2c(-c3ccccc3Cl)c(NC(=O)Nc3ccc(F)cc3F)cnc12 = 98.3
Cc1cc(C)c2c(c1)c(-c1ccccc1Cl)c(NC(=O)Nc1ccc(F)cc1F)c[n+]2[O-] = 94.4
O=C(Nc1cnc2ccc(Cl)cc2c1-c1ccccc1)Nc1c(F)cccc1F = 75.7
O=C(Nc1ccc(F)cc1F)Nc1cnc2ccc(OC(F)F)cc2c1-c1ccccc1 = 80.7
CSc1ccc2ncc(NC(=O)Nc3ccc(F)cc3F)c(-c3ccccc3)c2c1 = 87.8
Cc1cc(C)c2ncc(NC(=O)Nc3c(C)cccc3C)c(-c3ccccc3Cl)c2c1 = 97.9
Cc1cc(C)c2ncc(NC(=O)Nc3cc(C)c(O)c(C)c3)c(-c3ccccc3Cl)c2c1 = 95.9
COc1ccc(-c2c(NC(=O)Nc3ccc(F)cc3F)cnc3ccc(Cl)cc23)c(OC)c1OC = 98
O=C(Nc1ccc(F)cc1F)Nc1cnc2ccc(F)cc2c1-c1ccccc1Cl = 95.6
CC(=O)Oc1c(C)cc(NC(=O)Nc2cnc3c(C)cc(C)cc3c2-c2ccccc2Cl)cc1C = 96.2
O=C(Nc1ccc(F)cc1F)Nc1cnc2ccc(SC(F)F)cc2c1-c1ccccc1 = 85.7
O=C(Nc1ccccc1F)Nc1cnc2ccc(Cl)cc2c1-c1ccccc1 = 75
Cc1cc2c(-c3ccccc3Cl)c(NC(=O)Nc3ccc(F)cc3F)cnc2c(C)c1C = 99.3
Cc1cc(C)c2ncc(NC(=O)Nc3cc(C)c(O)c(C)c3C)c(-c3ccccc3Cl)c2c1 = 97.9
Cc1cc(C)c2ncc(NC(=O)Nc3ccc(F)cc3F)c(-c3ccccc3Cl)c2c1 = 98.9
Cc1ccc2ncc(NC(=O)Nc3ccc(F)cc3F)c(-c3ccccc3Cl)c2c1 = 98.5
